System: CCRF-CEM
Assay: Anticancer activity against human CCRF-CEM cells assessed as cell growth promotion at 10^-5 M after 48 hrs by SRB assay relative to control
Type: functional
# label = rule met if Activity < 90% else rule not met

Consider the following illustrative entries.
[[record]]
molecule_smiles = "O=c1c2ccccc2nc(-c2ccco2)n1/N=C/c1ccccc1Cl"
class_name = "rule met"

[[record]]
molecule_smiles = "Brc1cccc(/C=C/c2nc3ccccc3nc2SCc2nc3ccccc3[nH]2)c1"
class_name = "rule not met"

[[record]]
molecule_smiles = "O=C(Nc1ccccc1C(=O)Nc1ccc(/C=C/C=C/c2ccccc2)cc1)c1ccccc1"
class_name = "rule met"

[[record]]
molecule_smiles = "O=C(Nc1ccccc1C(=O)Nc1ccc(/C=C/c2ccc(Cl)cc2)cc1)c1ccccc1"
class_name = "rule met"

[[record]]
molecule_smiles = "N#Cc1ccc(/C=C/c2nc3ccccc3nc2SCc2nc3ccccc3[nH]2)cc1"
class_name = "rule not met"


API: query returns whether the molecule falls strictly under 90% in Activity. Query: N#Cc1ccc(/C=C/c2ccc(NC(=O)c3ccccc3NC(=O)c3ccco3)cc2)cc1
rule not met

Determine if Oc1ccccc1/C=C/c1nc2ccccc2nc1SCc1nc2ccccc2[nH]1 shows Activity strictly lower than 90%.
rule met

Quick check: Activity of O=c1c2ccccc2nc(-c2ccco2)n1O under 90%?
rule not met

Dear reviewer, please state whether NS(=O)(=O)c1ccc(NC(=O)c2ccccc2NC(=O)c2ccco2)cc1 has Activity strictly beneath 90%.
rule not met

Hello, is Activity of the following molecule strictly smaller than 90%? COc1cc(/C=C/c2ccc(NC(=O)c3ccccc3NC(=O)c3ccccc3)cc2)ccc1O
rule met

Would you kindly verify if Activity of COc1ccc(OC)c(/C=C/c2nc3ccccc3nc2SCc2nc3ccccc3[nH]2)c1 is strictly less than 90%?
rule met

Does the reported Activity of the following molecule sit strictly below 90%? O=C(Nc1ccccc1C(=O)Nc1ccc(/C=C/c2ccc(O)cc2)cc1)c1ccccc1
rule met

Input O=C(Nc1ccccc1C(=O)Nc1ccc(/C=C/c2ccc(Cl)cc2)cc1)c1ccco1 ; condition: Activity strictly below 90%. Does it hold?
rule not met

Does the reported Activity of the following molecule sit strictly below 90%? Oc1ccc(/C=C/c2nc3ccccc3nc2SCc2nc3ccccc3[nH]2)cc1
rule met

In plain terms, does CN(C)c1ccc(/C=C/c2nc3ccccc3nc2SCc2nc3ccccc3[nH]2)cc1 come in under 90% for Activity?
rule met

====

Tested on: HT-29
Assay: Anticancer activity against human HT-29 cells assessed as cell growth promotion at 10^-5 M after 48 hrs by SRB assay relative to control
Assay type: functional
assay_endpoint: Activity (%)
Give bare numbers, in %.

[[record]]
molecule_smiles = "O=c1c2ccccc2nc(-c2ccco2)n1O"
assay_endpoint = "Activity"
test_value = 103.19

[[record]]
molecule_smiles = "CN(C)c1ccc(/C=C/c2nc3ccccc3nc2SCc2nc3ccccc3[nH]2)cc1"
assay_endpoint = "Activity"
test_value = 101

[[record]]
molecule_smiles = "COc1ccc(OC)c(/C=C/c2nc3ccccc3nc2SCc2nc3ccccc3[nH]2)c1"
assay_endpoint = "Activity"
test_value = 80.4

[[record]]
molecule_smiles = "O=C(Nc1ccccc1C(=O)Nc1ccc(/C=C/C=C/c2ccccc2)cc1)c1ccccc1"
assay_endpoint = "Activity"
test_value = 111

[[record]]
molecule_smiles = "O=C(Nc1ccccc1C(=O)Nc1ccc(/C=C/c2ccc(Cl)cc2)cc1)c1ccccc1"
assay_endpoint = "Activity"
test_value = 89.94

[[record]]
molecule_smiles = "O=C(O)c1ccc(-n2c(-c3ccco3)nc3ccccc3c2=O)cc1"
assay_endpoint = "Activity"
test_value = 92


Please state Activity for every compound in the list that follows.
1. Oc1ccc(/C=C/c2nc3ccccc3nc2SCc2nc3ccccc3[nH]2)cc1
2. O=c1c2ccccc2nc(-c2ccco2)n1/N=C/c1ccccc1Cl
3. N#Cc1ccc(/C=C/c2nc3ccccc3nc2SCc2nc3ccccc3[nH]2)cc1
4. COc1cc(/C=C/c2ccc(NC(=O)c3ccccc3NC(=O)c3ccccc3)cc2)ccc1O

1: 86.49; 2: 52.78; 3: 89.43; 4: 121

Return reported Activity values for all items listed beneath this line.
1. Brc1cccc(/C=C/c2nc3ccccc3nc2SCc2nc3ccccc3[nH]2)c1
2. O=C(Nc1ccccc1C(=O)Nc1ccc(/C=C/c2ccc(O)cc2)cc1)c1ccccc1
3. Oc1ccccc1/C=C/c1nc2ccccc2nc1SCc1nc2ccccc2[nH]1
4. O=C(Nc1ccccc1C(=O)Nc1ccc(/C=C/c2ccc(Cl)cc2)cc1)c1ccco1
5. NS(=O)(=O)c1ccc(NC(=O)c2ccccc2NC(=O)c2ccco2)cc1

[94.19, 97.64, 83.56, 103, 99.28]
